molecular target: human Nav1.7 (full length) (human) (UniProt Q15858); experiment: cell-based or functional assay
READOUT NAME: % inhibition of inward current following P02 voltage protocol, 25 µg/ml (%)

BINDER: 8B6 (antibody, human IgG1, V domains shown) VH: EVQLQESGPGLVKPSQTLSLTCTVSGGSISTSGTGWSWIRQPPGKGLEWMGIIGYDGGTYYNPSLKSRTSISRDTSKNQFSLQLTSVTPEDTAVYYCARGLGPWGQGIQVTVSS VL: DIQMTQSPSSLSASLGDRVTITCQASQGISKYLAWYQQKPGQAPKLLIYSASRLETGVPSRFSGSGSGTTFTLVISGLEAEDAGSYYCQQYYRAPATFGQGTKVELK
READOUT UNIT: %
VALUE MEASURED: 58.4
--
BINDER: 8A7 (antibody, human IgG1, V domains shown, also called mAb 8A7) VH: EVQVQESGPGLVTPSQTLSLTCTVSGGSIKNNYYYWNWIRQPPGKGLEWMGAIAYSGSTYYSPSLQSRTSISRDTSKNQFTLQLSSVTPEDTAVYYCARVPSVFGLPYGGMNYWGKGTLVTVSS VL: SYELTQSPSVTVALRQTAKITCGGSRIGSKSVQWYQQKPGQVPVLVIYADNRRPSRIPERFSGSNSGNTATLIISGAQAEDEADYYCQVWDSSAAVFGGGTHLTVLG
READOUT UNIT: %
VALUE MEASURED: 33.3
--
BINDER: 9A11 (antibody, human IgG1, V domains shown) VH: EVQLVQPGAEVRRPGAAVKVSCKASGFALISSYIDWVRQAPGQGLEWMGRIDPEDGGTSYAQKFQGRVTVTVDTATSTAYVELSSLRSDDTGVYFCMVGDSGYWGQGTQVTVSS VL: ATMLTQSPGSLSVVPGESASISCKASQSLVHTDGKTYLSWLLQKPGQSPQRLIYQVSTRGSGVPDRVTGSGSGTDFTLKISGVKAEDAGVYYCAQTTYYPPTFGQGTKVELK
READOUT UNIT: %
VALUE MEASURED: 49.4
